Please respond with reported IC50 for every item in the list.
# TGT: phosphodiesterase isolated from rat brain
# MEASUREMENT DESCRIPTION: phosphodiesterase inhibition, enzyme isolated from rat brain
# Assay type: biochemical
# STUDY CONDITIONS: inhibitor concentration giving 50% decrease of enzyme activity, 20 minutes incubation, read-out: 150(μmoles) rat brain
Give bare numbers, in µM.

I have 3 compounds here; please give me IC50 for each one.
1. CCC12C=CCN3CCc4c(n(c5cccc([N+](=O)[O-])c45)C(COC(=O)c4cc(OC)c(OC)c(OC)c4)=C1)C32 (stereo not drawn)
2. CCC12C=C(COC(C)=O)n3c4c(c5ccccc53)CCN(CC(OC(C)=O)C1)C42 (stereo not drawn) [compound 956, 18β-Acetoxy-apovincaminol acetate]
3. CCC12C=C(COC(C)=O)n3c4c(c5ccccc53)CCN(CC(O)C1)C42 (stereo not drawn) [compound 1041, 18β-Hydroxy-apovincaminol acetate]

1: 30; 2: 30; 3: 120

---

# TGT: phosphodiesterase isolated from cattle heart
# MEASUREMENT DESCRIPTION: phosphodiesterase inhibition, enzyme isolated from cattle heart
# STUDY CONDITIONS: inhibitor concentration giving 50% decrease of enzyme activity, 20 minutes incubation, read-out: 150(μmoles) cattle heart
Counter-ions that a name gives are not always drawn.
Threshold 20 µM. IC50 below it: TRUE. IC50 at it or above: FALSE.

See these solved cases before continuing.
INSERT INTO results (compound, assigned_label) VALUES
  ('CCC12C=CCN3CCc4c(n(c5cccc([N+](=O)[O-])c45)C(COC(=O)c4cc(OC)c(OC)c(OC)c4)=C1)C32 (stereo not drawn) [compound 888]', 'TRUE'),
  ('CCC12C=CCN3CCc4c(n(c5cc([N+](=O)[O-])ccc45)C(COC(=O)c4cc(OC)c(OC)c(OC)c4)=C1)C32 (stereo not drawn) [compound 889]', 'TRUE'),
  ('CCC12C=C(COC(=O)c3cc(OC)c(OC)c(OC)c3)n3c4c(c5ccccc53)CCN(CC(O)C1)C42 (stereo not drawn) [compound 1079]', 'TRUE'),
  ('CCC12C=C(COC(C)=O)n3c4c(c5ccccc53)CCN(CC(OC(C)=O)C1)C42 (stereo not drawn) [compound 956, 18β-Acetoxy-apovincaminol acetate]', 'FALSE'),
  ('COc1ccc(Cc2nccc3cc(OC)c(OC)cc23)cc1OC [papaverin hydrochloride, reference compound]', 'FALSE');

Input CCC12C=C(COC(C)=O)n3c4c(c5ccccc53)CCN(CC(O)C1)C42 (stereo not drawn) [compound 1041, 18β-Hydroxy-apovincaminol acetate] ; condition: IC50 strictly below 20 µM. Does it hold?
FALSE

---

# TGT: phosphodiesterase isolated from rat brain
# MEASUREMENT DESCRIPTION: phosphodiesterase inhibition, enzyme isolated from rat brain
# STUDY CONDITIONS: inhibitor concentration giving 50% decrease of enzyme activity, 20 minutes incubation, read-out: 150(μmoles) rat brain
Where a name gives a salt, the structure may show the parent alone.
Exercise: state measured pIC50 for each of the compounds provided.
One number for each entry, as −log10 of the molar value.

INSERT INTO results (compound, tgt, recorded_number) VALUES
  ('CCC12C=CCN3CCc4c(n(c5cc([N+](=O)[O-])ccc45)C(COC(=O)c4cc(OC)c(OC)c(OC)c4)=C1)C32 (centres unmarked) [compound 889]', 'phosphodiesterase isolated from rat brain', 5.00),
  ('COc1ccc(Cc2nccc3cc(OC)c(OC)cc23)cc1OC [papaverin hydrochloride, reference compound]', 'phosphodiesterase isolated from rat brain', 3.92),
  ('CCC12C=C(COC(=O)c3cc(OC)c(OC)c(OC)c3)n3c4c(c5ccccc53)CCN(CC(O)C1)C42 (centres unmarked) [compound 1079]', 'phosphodiesterase isolated from rat brain', 5.30),
  ('CCC12C=CCN3CCc4c(n(c5cccc([N+](=O)[O-])c45)C(COC(C)=O)=C1)C32 (centres unmarked) [compound 886]', 'phosphodiesterase isolated from rat brain', 4.30);

Alright, here's another compound for you.
// fetch pIC50 for CCC12C=CCN3CCc4c(n(c5cc([N+](=O)[O-])ccc45)C(COC(C)=O)=C1)C32 (centres unmarked) [compound 887] ; system: phosphodiesterase isolated from rat brain
4.52
